Some compounds, each annotated with its measured viability, T/C.
- System: 233499-124-R-J3-PDC complex spheroid viability, % test/control
- Method description: Anticancer human tumor 233499-124-R-J3-PDC patient-derived colon adenocarcinoma cell line growth inhibition
- Measurement parameters: second compound 0.1 µM; first compound 0.0949 µM; active compounds read low
Numbers only here, please. The scale is %.

Ask: # query: viability, T/C | item NS(=O)(=O)OCC1CC(n2ccc3c(NC4CCc5ccccc54)ncnc32)CC1O (stereo unspecified) + NC1CCC(NC2CC2c2ccccc2)CC1 | system: 233499-124-R-J3-PDC complex spheroid viability, % test/control
Reply: 55.9

Ask: # query: viability, T/C | item CCN(c1cc(-c2ccc(CN3CCOCC3)cc2)cc(C(=O)NCc2c(C)cc(C)[nH]c2=O)c1C)C1CCOCC1 + NC1CC1c1ccc(-c2cccc(O)c2)cc1 | system: 233499-124-R-J3-PDC complex spheroid viability, % test/control
Reply: 111

Next:
Ask: # query: viability, T/C | item COc1cc(C2c3cc4c(cc3C(OC3OC5COC(C)OC5C(O)C3O)C3COC(=O)C23)OCO4)cc(OC)c1O (stereo unspecified) + NC1CCC(NC2CC2c2ccccc2)CC1 | system: 233499-124-R-J3-PDC complex spheroid viability, % test/control
Reply: 80.8

Ask: # query: viability, T/C | item Nc1ccn(C2OC(CO)C(O)C2(F)F)c(=O)n1 (stereo unspecified) + NC1CC1c1ccc(-c2cccc(O)c2)cc1 | system: 233499-124-R-J3-PDC complex spheroid viability, % test/control
Reply: 49.4

Ask: # query: viability, T/C | item O=C(C=Cc1cccc(S(=O)(=O)Nc2ccccc2)c1)NO + NC1CCC(NC2CC2c2ccccc2)CC1 | system: 233499-124-R-J3-PDC complex spheroid viability, % test/control
Reply: 122

Ask: # query: viability, T/C | item NS(=O)(=O)OCC1CC(n2ccc3c(NC4CCc5ccccc54)ncnc32)CC1O (stereo unspecified) + NC1CC1c1ccc(-c2cccc(O)c2)cc1 | system: 233499-124-R-J3-PDC complex spheroid viability, % test/control
Reply: 28.6

Ask: # query: viability, T/C | item Nc1ccccc1NC(=O)c1ccc(CNC(=O)OCc2cccnc2)cc1 + NC1CC1c1ccc(-c2cccc(O)c2)cc1 | system: 233499-124-R-J3-PDC complex spheroid viability, % test/control
Reply: 100

Ask: # query: viability, T/C | item CCc1c2c(nc3ccc(O)cc13)-c1cc3c(c(=O)n1C2)COC(=O)[C@]3(O)CC + NC1CC1c1ccc(-c2cccc(O)c2)cc1 | system: 233499-124-R-J3-PDC complex spheroid viability, % test/control
Reply: 27.7

---

Some molecules, each annotated with its measured viability, T/C.
- Test system: 233499-124-R-J3-PDC complex spheroid viability, % test/control
- Method description: Anticancer human tumor 233499-124-R-J3-PDC cell line growth inhibition;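 also: spheroids exposed to agents for one week before readout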
- Measurement parameters: second compound 1 µM; first compound 0.001 µM; active compounds read low
- Text: Multicellular complex tumor spheroid response to LSD1 Inhibitor Iadademstat in combination with a variety of drugs and investigational agents in selected tumor cell lines The current study was undertaken to assess response to LSD1 inhibitors in combination with standard-of-care drugs and investigational agents in solid tumor complex spheroid models as well as in the K-562 leukemia. […] Compounds. […] If the clinical Cmax for an agent had not been determined, the highest concentration tested was 10 microM. […]
Numbers only here, please. The scale is %.

Illustrative cases are given below, each with its answer.
Ask: Return reported viability, T/C; argument: Cn1ncnc1C1c2n[nH]c(=O)c3cc(F)cc(c23)NC1c1ccc(F)cc1 (stereo not drawn) + NC1CCC(NC2CC2c2ccccc2)CC1
Reply: 87.1

Ask: Return reported viability, T/C; argument: Cn1ncnc1C1c2n[nH]c(=O)c3cc(F)cc(c23)NC1c1ccc(F)cc1 (stereo not drawn) + NC1CC1c1ccc(-c2cccc(O)c2)cc1
Reply: 83.1

Ask: Return reported viability, T/C; argument: CC(C)CC(NC(=O)CNC(=O)c1cc(Cl)ccc1Cl)B1OC(=O)CC(CC(=O)O)(C(=O)O)O1 (stereo not drawn) + NC1CC1c1ccc(-c2cccc(O)c2)cc1
Reply: 95.1

Ask: Return reported viability, T/C; argument: CC[C@@]1(O)C(=O)OCc2c1cc1n(c2=O)Cc2cc3c(CN(C)C)c(O)ccc3nc2-1 + NC1CC1c1ccc(-c2cccc(O)c2)cc1
Reply: 94

Ask: Return reported viability, T/C; argument: CC(C)CC(NC(=O)C(Cc1ccccc1)NC(=O)c1cnccn1)B(O)O (stereo not drawn) + NC1CCC(NC2CC2c2ccccc2)CC1
Reply: 100

Next:
Ask: Return reported viability, T/C; argument: CC(C)CC(NC(=O)CNC(=O)c1cc(Cl)ccc1Cl)B1OC(=O)CC(CC(=O)O)(C(=O)O)O1 (stereo not drawn) + NC1CCC(NC2CC2c2ccccc2)CC1
Reply: 78.1

Ask: Return reported viability, T/C; argument: CC[C@@]1(O)C(=O)OCc2c1cc1n(c2=O)Cc2cc3c(CN(C)C)c(O)ccc3nc2-1 + NC1CCC(NC2CC2c2ccccc2)CC1
Reply: 63.9

Ask: Return reported viability, T/C; argument: CC(C)CC(NC(=O)C(Cc1ccccc1)NC(=O)c1cnccn1)B(O)O (stereo not drawn) + NC1CC1c1ccc(-c2cccc(O)c2)cc1
Reply: 0.91
